# Target under test: T1, MutS (Escherichia coli, UniProt P23909 1-853)
# T1 sequence: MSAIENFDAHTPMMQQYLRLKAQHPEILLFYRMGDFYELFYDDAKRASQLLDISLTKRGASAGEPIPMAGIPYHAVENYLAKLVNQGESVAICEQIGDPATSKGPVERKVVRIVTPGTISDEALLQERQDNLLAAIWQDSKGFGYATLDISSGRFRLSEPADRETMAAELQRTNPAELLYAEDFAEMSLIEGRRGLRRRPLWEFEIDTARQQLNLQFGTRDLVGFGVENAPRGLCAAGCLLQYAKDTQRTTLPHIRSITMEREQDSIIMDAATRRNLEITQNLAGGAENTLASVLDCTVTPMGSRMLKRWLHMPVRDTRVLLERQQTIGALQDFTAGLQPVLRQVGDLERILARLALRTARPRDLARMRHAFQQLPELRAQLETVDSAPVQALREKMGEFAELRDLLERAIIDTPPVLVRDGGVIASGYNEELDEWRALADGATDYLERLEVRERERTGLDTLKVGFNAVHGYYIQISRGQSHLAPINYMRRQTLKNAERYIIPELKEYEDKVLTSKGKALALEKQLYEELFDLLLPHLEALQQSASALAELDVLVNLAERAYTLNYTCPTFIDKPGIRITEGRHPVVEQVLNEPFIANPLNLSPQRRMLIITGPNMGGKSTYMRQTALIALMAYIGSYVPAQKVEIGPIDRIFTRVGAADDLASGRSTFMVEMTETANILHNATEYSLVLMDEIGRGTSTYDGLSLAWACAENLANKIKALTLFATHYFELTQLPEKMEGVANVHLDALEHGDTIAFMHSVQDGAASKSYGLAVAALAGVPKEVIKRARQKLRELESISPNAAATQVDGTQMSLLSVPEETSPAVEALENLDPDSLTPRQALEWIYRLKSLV
# Experiment: stopped-flow FRET kinetics
Attribute measured: Kd (nM)
Please give a number only; it is taken to be in nM.

Supply measured Kd of 30-1ΔT (dsDNA) DNA 1: AACTGCCAGGCACCAGTGTCAGCGTCGTAT DNA 2: ATACGACGCTGACACTGGTGCCTTGGCAGTT in your reply.
39

Source: paper PMC2666446
